Source of measurements: paper PMC12250071

STUDY SYSTEM: VvCAT2
Construct: full-length, C-terminal 6His, reconstituted in proteoliposomes
EXPERIMENT DESCRIPTION: competitive inhibition of [3H]arginine uptake in proteoliposomes with purified transporter (Lineweaver-Burk); also transported as [3H]ornithine
pKi: −log10 of the molar value.
PARAMETER: pKi

[[record]]
structure_as_smiles = "NCCC[C@H](N)C(=O)O"
parameter = "pKi"
reported = 2.66

